Measured kcat of individual entries
systemUnderTest: Acremonium strictum gluco-oligosaccharide oxidase GOOX-VN variant 1 Y300A, SEQ ID NO. 6 (Sarocladium strictum, UniProt D7PF15, A38V/S388N/Y300A)
Sequence (D7PF15 1-474 A38V/Y300A/S388N): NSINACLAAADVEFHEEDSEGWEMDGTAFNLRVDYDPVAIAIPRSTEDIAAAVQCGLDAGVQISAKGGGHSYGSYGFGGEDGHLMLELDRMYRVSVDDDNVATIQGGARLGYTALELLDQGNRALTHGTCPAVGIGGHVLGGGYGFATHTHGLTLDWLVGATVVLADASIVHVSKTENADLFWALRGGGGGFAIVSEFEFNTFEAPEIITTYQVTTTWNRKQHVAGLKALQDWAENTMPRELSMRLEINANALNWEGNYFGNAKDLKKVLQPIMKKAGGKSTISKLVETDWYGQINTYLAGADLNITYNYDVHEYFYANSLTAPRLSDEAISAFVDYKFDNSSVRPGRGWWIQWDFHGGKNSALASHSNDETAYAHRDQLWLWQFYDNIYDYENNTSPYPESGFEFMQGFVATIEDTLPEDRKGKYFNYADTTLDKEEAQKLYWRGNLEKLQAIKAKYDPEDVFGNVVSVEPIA
assayExplanation: Enzymatic assay, kinetic analysis (chromogenic H2O2 assay) of Y300A
experimentalSetup: 37° C., pH 8.0

>  <compound>
OC[C@H]1O[C@@H](O[C@H]2[C@H](O)[C@@H](O)C(O)O[C@@H]2CO)[C@H](O)[C@@H](O)[C@@H]1O (stereo partly shown)

>  <unitLabel>
s⁻¹

>  <kcat>
13.72

$$$$
>  <compound>
OC[C@H]1OC(O)[C@H](O)[C@@H](O)[C@@H]1O (stereo partly shown)

>  <unitLabel>
s⁻¹

>  <kcat>
13.22

$$$$
>  <compound>
OC[C@H]1O[C@@H](O[C@H]2[C@H](O)[C@@H](O)[C@H](O[C@H]3[C@H](O)[C@@H](O)C(O)O[C@@H]3CO)O[C@@H]2CO)[C@H](O)[C@@H](O)[C@@H]1O (stereo partly shown)

>  <unitLabel>
s⁻¹

>  <kcat>
11.12

$$$$
>  <compound>
OC1OC[C@@H](O[C@@H]2OC[C@@H](O[C@@H]3OC[C@@H](O)[C@H](O)[C@H]3O)[C@H](O)[C@H]2O)[C@H](O)[C@H]1O (stereo partly shown)

>  <unitLabel>
s⁻¹

>  <kcat>
13.87

$$$$
>  <compound>
OC1OC[C@@H](O[C@@H]2OC[C@@H](O)[C@H](O)[C@H]2O)[C@H](O)[C@H]1O (stereo partly shown)

>  <unitLabel>
s⁻¹

>  <kcat>
13.29

$$$$
>  <compound>
OC1OC[C@@H](O)[C@H](O)[C@H]1O (stereo partly shown)

>  <unitLabel>
s⁻¹

>  <kcat>
11.33

$$$$
>  <compound>
OC[C@H]1OC(O)[C@H](O)[C@@H](O)[C@H]1O (stereo partly shown)

>  <unitLabel>
s⁻¹

>  <kcat>
13.3

$$$$

* * *

systemUnderTest: Acremonium strictum gluco-oligosaccharide oxidase GOOX-VN (type strain CBS 346.70, V38 and N388), SEQ ID NO. 2 (Sarocladium strictum, UniProt D7PF15, A38V/S388N)
Sequence (D7PF15 1-474 A38V/S388N): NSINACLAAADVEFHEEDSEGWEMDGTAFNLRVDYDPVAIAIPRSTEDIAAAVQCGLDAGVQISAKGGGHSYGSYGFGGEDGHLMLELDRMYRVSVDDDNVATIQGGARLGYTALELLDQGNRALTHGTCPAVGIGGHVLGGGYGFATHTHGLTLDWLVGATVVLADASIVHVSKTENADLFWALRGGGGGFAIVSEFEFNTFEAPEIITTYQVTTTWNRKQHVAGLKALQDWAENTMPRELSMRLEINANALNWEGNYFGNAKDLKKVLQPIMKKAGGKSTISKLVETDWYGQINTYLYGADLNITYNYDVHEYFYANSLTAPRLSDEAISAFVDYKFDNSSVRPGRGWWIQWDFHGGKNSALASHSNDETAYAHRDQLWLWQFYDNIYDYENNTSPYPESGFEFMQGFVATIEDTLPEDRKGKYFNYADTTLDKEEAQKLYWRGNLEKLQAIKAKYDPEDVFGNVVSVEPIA
assayExplanation: Enzymatic assay, kinetic analysis (chromogenic H2O2 assay) of GOOX-VN
experimentalSetup: 37° C., pH 8.0
Measured kcat of individual entries

>  <compound>
CC(=O)N[C@H]1C(O)O[C@H](CO)[C@@H](O)[C@@H]1O (some centres unmarked)

>  <unitLabel>
s⁻¹

>  <kcat>
8.078

$$$$
>  <compound>
OC[C@H]1OC(O)[C@H](O)[C@@H](O)[C@H]1O (some centres unmarked)

>  <unitLabel>
s⁻¹

>  <kcat>
7.152

$$$$
>  <compound>
OC[C@H]1OC(O)[C@H](O)[C@@H](O)[C@@H]1O (some centres unmarked)

>  <unitLabel>
s⁻¹

>  <kcat>
7.485

$$$$
>  <compound>
OC[C@H]1O[C@H](O[C@H]2[C@H](O)[C@@H](O)C(O)O[C@@H]2CO)[C@H](O)[C@@H](O)[C@@H]1O (some centres unmarked)

>  <unitLabel>
s⁻¹

>  <kcat>
6

$$$$
>  <compound>
OC1OC[C@@H](O)[C@H](O)[C@H]1O (some centres unmarked)

>  <unitLabel>
s⁻¹

>  <kcat>
5.248

$$$$

* * *

systemUnderTest: Acremonium strictum gluco-oligosaccharide oxidase GOOX-VN variant 3 W351F, SEQ ID NO. 8 (Sarocladium strictum, UniProt D7PF15, A38V/S388N/W351F)
Sequence (D7PF15 1-474 A38V/W351F/S388N): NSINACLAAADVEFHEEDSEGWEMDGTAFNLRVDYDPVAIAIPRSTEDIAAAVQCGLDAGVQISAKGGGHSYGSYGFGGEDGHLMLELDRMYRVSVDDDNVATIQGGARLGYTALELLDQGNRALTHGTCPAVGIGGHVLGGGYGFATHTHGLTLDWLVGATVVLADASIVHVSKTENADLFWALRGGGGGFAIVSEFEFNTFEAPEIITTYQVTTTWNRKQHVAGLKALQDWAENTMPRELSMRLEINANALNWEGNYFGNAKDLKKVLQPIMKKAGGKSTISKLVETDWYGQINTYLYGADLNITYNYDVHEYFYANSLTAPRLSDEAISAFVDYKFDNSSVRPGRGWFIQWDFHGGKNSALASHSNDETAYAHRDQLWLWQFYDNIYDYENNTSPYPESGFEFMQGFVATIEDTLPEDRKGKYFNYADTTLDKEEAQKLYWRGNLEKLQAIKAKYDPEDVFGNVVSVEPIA
assayExplanation: Enzymatic assay, kinetic analysis (chromogenic H2O2 assay) of W351F
experimentalSetup: 37° C., pH 8.0
Measured kcat of individual entries

>  <compound>
CC(=O)N[C@H]1C(O)O[C@H](CO)[C@@H](O)[C@@H]1O (stereo partly shown)

>  <unitLabel>
s⁻¹

>  <kcat>
7.785

$$$$
>  <compound>
OC1OC[C@@H](O)[C@H](O)[C@H]1O (stereo partly shown)

>  <unitLabel>
s⁻¹

>  <kcat>
4.618

$$$$
>  <compound>
OC[C@H]1OC(O)[C@H](O)[C@@H](O)[C@@H]1O (stereo partly shown)

>  <unitLabel>
s⁻¹

>  <kcat>
5.622

$$$$
>  <compound>
OC[C@H]1OC(O)[C@H](O)[C@@H](O)[C@H]1O (stereo partly shown)

>  <unitLabel>
s⁻¹

>  <kcat>
6.56

$$$$

* * *

Measured kcat of individual entries
systemUnderTest: Acremonium strictum gluco-oligosaccharide oxidase GOOX-VN variant 2 Y300N, SEQ ID NO. 7 (Sarocladium strictum, UniProt D7PF15, A38V/S388N/Y300N)
Sequence (D7PF15 1-474 A38V/Y300N/S388N): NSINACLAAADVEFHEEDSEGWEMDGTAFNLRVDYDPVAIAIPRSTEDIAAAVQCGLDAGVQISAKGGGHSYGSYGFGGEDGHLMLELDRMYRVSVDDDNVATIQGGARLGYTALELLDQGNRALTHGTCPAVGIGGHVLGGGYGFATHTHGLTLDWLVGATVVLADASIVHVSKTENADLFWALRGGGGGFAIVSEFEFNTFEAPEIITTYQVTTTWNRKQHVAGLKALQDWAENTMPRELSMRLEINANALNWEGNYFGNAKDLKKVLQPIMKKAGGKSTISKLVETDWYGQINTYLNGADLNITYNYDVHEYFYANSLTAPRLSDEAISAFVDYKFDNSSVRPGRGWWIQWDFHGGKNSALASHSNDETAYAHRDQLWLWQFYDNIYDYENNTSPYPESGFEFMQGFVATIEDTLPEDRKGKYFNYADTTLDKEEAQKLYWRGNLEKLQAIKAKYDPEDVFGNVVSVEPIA
assayExplanation: Enzymatic assay, kinetic analysis (chromogenic H2O2 assay) of Y300N
experimentalSetup: 37° C., pH 8.0

>  <compound>
OC[C@H]1O[C@@H](O[C@H]2[C@H](O)[C@@H](O)C(O)O[C@@H]2CO)[C@H](O)[C@@H](O)[C@@H]1O (some centres unmarked)

>  <unitLabel>
s⁻¹

>  <kcat>
11.4

$$$$
>  <compound>
OC1OC[C@@H](O[C@@H]2OC[C@@H](O[C@@H]3OC[C@@H](O)[C@H](O)[C@H]3O)[C@H](O)[C@H]2O)[C@H](O)[C@H]1O (some centres unmarked)

>  <unitLabel>
s⁻¹

>  <kcat>
11.97

$$$$
>  <compound>
OC[C@H]1OC(O)[C@H](O)[C@@H](O)[C@H]1O (some centres unmarked)

>  <unitLabel>
s⁻¹

>  <kcat>
11.76

$$$$
>  <compound>
OC[C@H]1O[C@@H](O[C@H]2[C@H](O)[C@@H](O)[C@H](O[C@H]3[C@H](O)[C@@H](O)C(O)O[C@@H]3CO)O[C@@H]2CO)[C@H](O)[C@@H](O)[C@@H]1O (some centres unmarked)

>  <unitLabel>
s⁻¹

>  <kcat>
9.983

$$$$
>  <compound>
OC1OC[C@@H](O)[C@H](O)[C@H]1O (some centres unmarked)

>  <unitLabel>
s⁻¹

>  <kcat>
9.932

$$$$
>  <compound>
OC1OC[C@@H](O[C@@H]2OC[C@@H](O)[C@H](O)[C@H]2O)[C@H](O)[C@H]1O (some centres unmarked)

>  <unitLabel>
s⁻¹

>  <kcat>
11.96

$$$$
>  <compound>
CC(=O)N[C@H]1C(O)O[C@H](CO)[C@@H](O)[C@@H]1O (some centres unmarked)

>  <unitLabel>
s⁻¹

>  <kcat>
11.34

$$$$
>  <compound>
OC[C@H]1OC(O)[C@H](O)[C@@H](O)[C@@H]1O (some centres unmarked)

>  <unitLabel>
s⁻¹

>  <kcat>
10.81

$$$$
